These measurements were taken from paper PMC10914487.

Target: T1, CysR∼CTLD3-Fc of DEC205 (human, UniProt O60449 28-627)
T1 chain: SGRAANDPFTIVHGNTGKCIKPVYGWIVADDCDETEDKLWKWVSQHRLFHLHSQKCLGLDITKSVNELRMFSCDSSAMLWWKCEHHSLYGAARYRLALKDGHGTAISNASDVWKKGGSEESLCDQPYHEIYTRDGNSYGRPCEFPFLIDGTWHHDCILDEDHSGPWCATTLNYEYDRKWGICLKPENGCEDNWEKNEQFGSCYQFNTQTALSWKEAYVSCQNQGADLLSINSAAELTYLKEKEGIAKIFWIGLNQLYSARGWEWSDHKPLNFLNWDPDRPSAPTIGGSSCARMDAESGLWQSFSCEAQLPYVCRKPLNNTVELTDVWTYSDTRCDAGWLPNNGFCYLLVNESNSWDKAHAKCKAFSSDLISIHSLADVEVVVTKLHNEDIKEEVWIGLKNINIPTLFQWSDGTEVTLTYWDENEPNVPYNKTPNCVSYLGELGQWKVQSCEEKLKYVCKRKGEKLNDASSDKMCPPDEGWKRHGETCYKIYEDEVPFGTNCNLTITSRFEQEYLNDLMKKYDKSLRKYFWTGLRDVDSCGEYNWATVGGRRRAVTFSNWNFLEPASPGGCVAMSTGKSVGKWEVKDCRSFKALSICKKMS
Experiment: ELISA; pH 6.0
VALUE TYPE: Kd (nM)

1. GSSGGGHGGG (keratin 10 (K10), human, tail, residues G481-G490; Form used in the Western blot (overlay) assay and, with SUMO as control, in ELISA; source: E. coli BL21(DE3), pET28a, purified (Ni-NTA); not shown: SUMO, N-terminal, kept) [K10-T10 (residue G481-G490), SUMO fusion]
10.9
